Just for reference, ChEMBL document CHEMBL5150072 is where these values come from.

Molecular target: Replicase polyprotein 1ab (Severe acute respiratory syndrome coronavirus 2, UniProt P0DTD1)
Experiment: Inhibition of SARS-CoV-2 main protease incubated for 30 mins by FRET based assay
readout name: IC50 (nM)
Respond with the bare value in nM.

Qu. Which IC50 is reported for this compound? `C[C@H](NC(=O)[C@@H](c1cccnc1)N(C(=O)C(Cl)Cl)c1ccc(-c2ccccc2)cc1)c1ccccc1`
Ans. 670

---

Biological target: Procathepsin L (Homo sapiens, UniProt P07711)
Sequence (P07711 whole entry): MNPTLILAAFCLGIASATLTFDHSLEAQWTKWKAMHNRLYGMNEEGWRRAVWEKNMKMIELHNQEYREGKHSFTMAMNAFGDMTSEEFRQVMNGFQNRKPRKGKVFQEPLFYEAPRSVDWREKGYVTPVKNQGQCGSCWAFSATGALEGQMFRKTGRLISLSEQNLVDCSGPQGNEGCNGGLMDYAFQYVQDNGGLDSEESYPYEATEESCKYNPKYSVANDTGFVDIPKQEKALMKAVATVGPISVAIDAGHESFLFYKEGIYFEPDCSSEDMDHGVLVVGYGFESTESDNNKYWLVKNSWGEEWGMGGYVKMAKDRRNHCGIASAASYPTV
pIC50: −log10 of the molar value.
readout name: pIC50

Qu. Short answer please: pIC50, Procathepsin L (Homo sapiens, UniProt P07711), entry `O=C(NCc1cccs1)[C@@H]1CN(C(=O)CCl)CCN1c1ccc(Cl)c(Cl)c1`
Ans. < 4.52

---

Biological target: Replicase polyprotein 1ab (Severe acute respiratory syndrome coronavirus 2, UniProt P0DTD1)
Assay: Inhibition of SARS-CoV-2 main protease
readout name: IC50 (nM)
Enter your answer as a number in nM; do not include the unit.

Qu. Please look up its IC50: `[2H][C@](C(=O)N[C@@H](C)c1ccc(F)cc1)(c1cccnc1)N(C(=O)C(C)=O)c1ccc2c(c1)oc1ccccc12`
Ans. 8

---

Biological target: Cathepsin F (Homo sapiens)
Sequence (Q9UBX1 whole entry): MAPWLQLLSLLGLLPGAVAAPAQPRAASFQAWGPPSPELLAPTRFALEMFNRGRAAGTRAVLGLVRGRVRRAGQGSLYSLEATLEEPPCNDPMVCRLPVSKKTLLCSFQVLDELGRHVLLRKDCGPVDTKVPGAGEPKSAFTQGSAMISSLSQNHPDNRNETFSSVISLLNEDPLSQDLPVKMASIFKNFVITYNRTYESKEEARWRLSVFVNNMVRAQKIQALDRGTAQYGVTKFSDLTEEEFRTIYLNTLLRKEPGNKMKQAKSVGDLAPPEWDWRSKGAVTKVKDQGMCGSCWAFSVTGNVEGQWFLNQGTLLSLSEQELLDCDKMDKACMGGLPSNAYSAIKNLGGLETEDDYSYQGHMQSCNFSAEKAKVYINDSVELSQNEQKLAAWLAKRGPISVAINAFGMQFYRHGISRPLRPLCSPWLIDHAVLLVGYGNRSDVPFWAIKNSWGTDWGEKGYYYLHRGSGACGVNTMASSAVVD
readout name: IC50

Qu. // query IC50 value for entry `O=C(NCc1cccs1)[C@@H]1CN(C(=O)CCl)CCN1c1ccc(Cl)c(Cl)c1`
Ans. > 30 µM

---

Tested on: SARS-CoV-2
Assay: Antiviral activity against SARS-CoV-2 infected in Vero E6 cells assessed as reduction in virus induced cytopathic effect incubated for 3 days
Type: functional, organism-based
Details: Severe acute respiratory syndrome coronavirus 2, Vero C1008, 72 h
readout name: pEC50
# pEC50 = -log10(concentration in molar units)

Qu. Return pEC50 measured with SARS-CoV-2 given this molecule: COc1cccc2[nH]c(C(=O)N[C@@H](CC(C)C)C(=O)N[C@@H](C[C@@H]3CCNC3=O)C(=O)CO)cc12 [PF-00835231]
Ans. 6.64

---

readout name: IC50

Qu. What measured IC50 is associated with `O=C(NCc1cccs1)[C@@H]1CN(C(=O)CCl)CCN1c1ccc(Cl)c(Cl)c1` on Cathepsin K (Homo sapiens, UniProt P43235)?
Ans. > 30 µM

---

I'd appreciate it if you could supply IC50 values for the items below.
Target: Replicase polyprotein 1ab (Severe acute respiratory syndrome coronavirus 2, UniProt P0DTD1)
Test: Inhibition of SARS-CoV-2 main protease using MCA-AVLQSGFR-Lys(Dnp)-Lys-NH2 as substrate preincubated for 30 mins followed by substrate addition and measured every 10 sec for 10 mins by FRET assay
Reply numerically in nM, unit not repeated.

Qu. What does the data say about its IC50? Entry: `O=C(NCc1cccs1)[C@@H]1CN(C(=O)CCl)CCN1c1ccc(Cl)c(Cl)c1`
Ans. 180

Qu. Which IC50 value is on record for `O=C(NCc1cccs1)[C@@H]1CN(C(=O)C(F)(F)S(=O)(=O)F)CCN1c1ccc(Cl)c(Cl)c1` ?
Ans. 1600

Qu. Give its IC50 value. Item: `O=C(NCc1cccs1)[C@@H]1CN(C(=O)c2cccnc2)CCN1c1ccc(Cl)c(Cl)c1`
Ans. 400

Qu. Which measured IC50 value corresponds to `C#CC(=O)N1CCN(c2ccc(Cl)c(Cl)c2)[C@H](C(=O)NCc2cccs2)C1` ?
Ans. 2800

Qu. # lookup: IC50 of `O=C(NCc1cccs1)[C@@H]1CN(C(=O)CBr)CCN1c1ccc(Cl)c(Cl)c1`
Ans. 310

---

Assay: Cytotoxicity against african green monkey Vero E6 cells assessed as reduction in cell viability after 26 hrs by MTS assay
Assay type: toxicity, cell-based, Vero C1008
Settings: chlorocebus sabaeus
readout name: CC50 at 26 h (µM)
# number only, unit µM dropped from output

Qu. Fill blank: measured CC50 at 26 h of the molecule `C#CC(=O)N1CCN(c2ccc(Cl)c(Cl)c2)[C@H](C(=O)NCc2cccs2)C1` is ____.
Ans. 11.9

Qu. Sample `O=C(NCc1cccs1)[C@@H]1CN(C(=O)CBr)CCN1c1ccc(Cl)c(Cl)c1` — what was its CC50 at 26 h?
Ans. 6.5

Qu. Returns the measured CC50 at 26 h for the input molecule. Input: `O=C(NCc1cccs1)[C@@H]1CN(C(=O)CCl)CCN1c1ccc(Cl)c(Cl)c1`
Ans. 12.5

---

Molecular target: UniProtKB P42574
Sequence (P42574 whole entry): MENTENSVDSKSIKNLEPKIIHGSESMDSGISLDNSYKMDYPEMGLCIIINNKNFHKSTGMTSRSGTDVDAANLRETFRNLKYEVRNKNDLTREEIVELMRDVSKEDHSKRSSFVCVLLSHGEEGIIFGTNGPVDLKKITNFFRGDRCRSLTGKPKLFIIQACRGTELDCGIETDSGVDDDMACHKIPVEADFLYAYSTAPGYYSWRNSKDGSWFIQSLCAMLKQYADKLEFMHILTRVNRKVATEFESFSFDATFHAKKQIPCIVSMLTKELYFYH
pIC50: −log10 of the molar value.
readout name: pIC50

Qu. So what's the measured pIC50 for this one? `O=C(NCc1cccs1)[C@@H]1CN(C(=O)CCl)CCN1c1ccc(Cl)c(Cl)c1`
Ans. < 4.52
